Hi there, I'd appreciate the recorded pEC50 for every entry that follows.
biological target: hNK2R (Homo sapiens, UniProt P21452); construct: host or cells: COS-7; assay: Hithunter cAMP assay (Gs-coupling) in transfected COS-7 cells; format: cell-based; settings: COS-7 cells
Sequence (P21452 whole entry): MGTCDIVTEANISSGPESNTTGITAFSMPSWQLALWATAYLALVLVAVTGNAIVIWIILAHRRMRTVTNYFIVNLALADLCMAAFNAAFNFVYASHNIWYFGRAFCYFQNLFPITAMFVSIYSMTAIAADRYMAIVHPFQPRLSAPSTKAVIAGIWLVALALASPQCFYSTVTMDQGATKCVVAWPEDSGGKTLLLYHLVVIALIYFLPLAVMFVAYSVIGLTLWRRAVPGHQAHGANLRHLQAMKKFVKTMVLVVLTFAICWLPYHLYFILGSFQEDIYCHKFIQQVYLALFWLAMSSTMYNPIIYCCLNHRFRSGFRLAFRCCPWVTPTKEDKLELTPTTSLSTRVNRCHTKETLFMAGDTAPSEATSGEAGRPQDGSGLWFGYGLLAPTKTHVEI
pEC50: −log10 of the molar value. Numbered stars: 1 amine (or outer) side, 2 acyl side, 3 side chain; on linkers, the order of the positions; unused ones are H or OH. Square brackets hold non-standard residues; d marks the D form. Peptide text beside a SMILES is read from it. * marks the point of attachment. C18 diacid = O=C(O)CCCCCCCCCCCCCCCCC(=O)*; γGlu = O=C(O)[C@H](CCC(=O)[*:2])N[*:1]; NMeL = CN[C@@H](CC(C)C)C(=O)O; hSer = N[C@@H](CCO)C(=O)O; AEEA = NCCOCCOCC(=O)O

Input: Record CC(C)C[C@@H](C(=O)N[C@@H](Cc1ccccc1)C(N)=O)N(C)C(=O)CNC(=O)[C@@H](NC(=O)[C@H](Cc1ccc(O)cc1)NC(=O)[C@H](CCCCN)NC(=O)[C@H](CC(=O)O)NC(=O)COCCOCCNC(=O)COCCOCCNC(=O)CC[C@H](NC(=O)CCCCCCCCCCCCCCCCC(=O)O)C(=O)O)C(C)C [compound 353, *Asp;Lys;Tyr;Val;Gly;NmLeu;Phe;NH2] ({C18 diacid-γGlu-AEEA-AEEA}-DKYVG[NMeL]F-NH2) : what is its pEC50 with hNK2R (Homo sapiens, UniProt P21452)?
Output: ~8.89

Input: Quick check: pEC50 on hNK2R (Homo sapiens, UniProt P21452), item COCC[C@H](NC(=O)[C@H](CC(C)C)N(C)C(=O)CNC(=O)[C@@H](NC(=O)[C@H](Cc1ccccc1)NC(=O)[C@H](CCCCN)NC(=O)[C@H](CC(=O)O)NC(=O)COCCOCCNC(=O)COCCOCCNC(=O)CC[C@H](NC(=O)CCCCCCCCCCCCCCCCC(=O)O)C(=O)O)[C@@H](C)O)C(N)=O [compound 383, *Asp;Lys;Phe;Thr;Gly;NmLeu;Metox;NH2] ({C18 diacid-γGlu-AEEA-AEEA}-DKFTG[NMeL][hSer](Me)-NH2) ?
Output: ~7.96

Input: Query for hNK2R (Homo sapiens, UniProt P21452): what pEC50 does the record show for COCC[C@H](NC(=O)[C@H](CC(C)C)N(C)C(=O)CNC(=O)[C@@H](NC(=O)[C@H](Cc1ccc(O)cc1)NC(=O)[C@H](CCCCN)NC(=O)[C@H](CC(=O)O)NC(=O)COCCOCCNC(=O)COCCOCCNC(=O)CC[C@H](NC(=O)CCCCCCCCCCCCCCCCC(=O)O)C(=O)O)[C@@H](C)O)C(N)=O [compound 366, *Asp;Lys;Tyr;Thr;Gly;NmLeu;Metox;NH2] ({C18 diacid-γGlu-AEEA-AEEA}-DKYTG[NMeL][hSer](Me)-NH2) ?
Output: ~6.92
